# System: Wolbachia pipientis
# assay.text: Anti-Wolbachia Cell-Based Screen
# Assay type: functional
# Design: scale not given: in the data most compounds retested in dose-response had high values
# condition.summary: 5 µM
Out of some 48,000 compounds screened, about 13,000 (27%) showed an effect of 50% or more. Some of the results follow.
For each entry below, report its Percent Effect value.
# number only, unit % dropped from output

Give Percent Effect (Wolbachia pipientis) of the following molecule: "CCN(Cc1noc(C(C)C)n1)Cc1ccc(C#N)cc1F"
13.78

Give Percent Effect (Wolbachia pipientis) of the following molecule: CCN1CCCC(O)(CNCc2ccccc2F)C1 (configuration not stated)
5.055

Give Percent Effect (Wolbachia pipientis) of the following molecule: O=C1CNCC(C(=O)N2CC(Oc3ccccc3Cl)C2)N1 (configuration not stated)
-5.2

Give Percent Effect (Wolbachia pipientis) of the following molecule: C[C@@H]1CN(Cc2ccccc2F)CC(C(N)=O)O1 (some centres not stated)
1.23

Give Percent Effect (Wolbachia pipientis) of the following molecule: "COc1ccc2c(C)nc(N3C[C@@H](C)O[C@@H](C)C3)nc2c1"
-4.468

Give Percent Effect (Wolbachia pipientis) of the following molecule: "CN1CCN(CCCNS(=O)(=O)Cc2ccccc2F)CC1"
-19.52

Give Percent Effect (Wolbachia pipientis) of the following molecule: "CN1CCN(c2nc(O)cc(Cc3ccccc3F)n2)CC1"
156.6

Give Percent Effect (Wolbachia pipientis) of the following molecule: "COCCN1CCN(c2nc(O)cc(Cc3ccccc3F)n2)CC1"
126.9

Give Percent Effect (Wolbachia pipientis) of the following molecule: CC(C)(C)CCN1CCCC(Cn2cc(CCO)nn2)C1 (configuration not stated)
-5.43

Give Percent Effect (Wolbachia pipientis) of the following molecule: "CCOc1ccnc(N2CCN(CCOC)CC2)n1"
-0.8063

Give Percent Effect (Wolbachia pipientis) of the following molecule: "C[C@@H]1CN(c2nc(O)cc(Cc3ccccc3F)n2)C[C@H](C)O1"
156.7

Give Percent Effect (Wolbachia pipientis) of the following molecule: "CCN1CCN(c2nc(O)cc(Cc3ccccc3F)n2)CC1"
169.1

---

# System: Wolbachia pipientis
# assay.text: Anti-Wolbachia Cell-Based Screen
# Type: functional
# Parameters: scale not given: in the data most compounds retested in dose-response had high values
# condition.summary: 5 µM
Among all 48,000 compounds or so, about 13,000 (27%) showed an effect of 50% or more. The list shows a part of the results.
For each entry below, report its Percent Effect value.
# number only, unit % dropped from output

For the compound shown here, "Cc1nc(C)c(CN(C)C2CCN(C(=O)OC(C)(C)C)CC2)s1" , give the reported Percent Effect.
-6.792

For the compound shown here, "Cc1nc[nH]c1CN1CCN(C(=O)c2cccs2)[C@H]2CS(=O)(=O)C[C@H]21" , give the reported Percent Effect.
-2.944

For the compound shown here, COc1ccc2c(c1)CC(C(=O)N(C)CCCc1cnn(C)c1)CO2 (stereo not given) , give the reported Percent Effect.
-3.689

For the compound shown here, "O=C(Nc1cnc2n1CCCC2)c1cccc(OCC(F)(F)F)c1" , give the reported Percent Effect.
-7.584

For the compound shown here, "Cn1cc(C(=O)N[C@@H]2CN(Cc3ccoc3)[C@@H]3CCCO[C@@H]32)cn1" , give the reported Percent Effect.
112.9

For the compound shown here, CCN1C(=O)CCC12CCCN(Cc1nccs1)C2.O=C(O)C(F)(F)F (stereo not given) , give the reported Percent Effect.
30.34

For the compound shown here, "Cn1ccnc1C(=O)N[C@@H]1CN(Cc2ccc(F)cc2)[C@@H]2CCCO[C@@H]21.O=C(O)C(F)(F)F" , give the reported Percent Effect.
106

For the compound shown here, "Cn1cc(C(=O)N[C@@H]2CN(Cc3ccc(F)cc3)[C@@H]3CCCO[C@@H]32)cn1.O=C(O)C(F)(F)F" , give the reported Percent Effect.
-4.433

For the compound shown here, "COc1cc(F)ccc1-c1nc2c([nH]1)c(C1CC1)nn2C" , give the reported Percent Effect.
1.853

For the compound shown here, "COC1CCN(CCNC(=O)C2CCCCC2)CC1" , give the reported Percent Effect.
-3.467

For the compound shown here, "Cc1nc(CN(C)c2nccc(C(F)(F)F)n2)cs1" , give the reported Percent Effect.
-8.606

For the compound shown here, "Cc1ccc(CN2C[C@H](NC(=O)c3nccn3C)[C@H]3OCCC[C@H]32)o1" , give the reported Percent Effect.
104.4

For the compound shown here, "O=C(O)C(F)(F)F.O=S(=O)(C1CC1)N1CCc2ncnc(N3CCCC3)c2CC1" , give the reported Percent Effect.
105.6

For the compound shown here, CN(Cc1ccc(F)c2cccnc12)C1CCS(=O)(=O)C1 (stereo not given) , give the reported Percent Effect.
8.686

For the compound shown here, CCC(NC(=O)c1ccc(COC)o1)c1nc(C(F)(F)F)cs1 (stereo not given) , give the reported Percent Effect.
-11.95

For the compound shown here, "O=C(O)C(F)(F)F.O=C(O)C(F)(F)F.O=C1CCC2(CCN(Cc3ccc(F)cc3)CC2)N1CCN1CCCC1" , give the reported Percent Effect.
100.3

For the compound shown here, CCN1C(=O)CCC12CCCN(Cc1ccc(F)cc1)CC2.O=C(O)C(F)(F)F (stereo not given) , give the reported Percent Effect.
86.81

For the compound shown here, "CCN(CC)[C@@H]1CN(Cc2ccc(C)o2)[C@@H]2CCCO[C@H]12" , give the reported Percent Effect.
-8.708

For the compound shown here, CCN(Cc1cnc(NCc2ccccc2)nc1)C1CCS(=O)(=O)C1 (stereo not given) , give the reported Percent Effect.
-2.242

For the compound shown here, CN(Cc1cccc2cccnc12)C1CCS(=O)(=O)C1.O=C(O)CC(O)(CC(=O)O)C(=O)O (stereo not given) , give the reported Percent Effect.
164.7

---

# System: Wolbachia pipientis
# assay.text: Anti-Wolbachia Cell-Based Screen
# Format: functional
# Set-up: scale not given: in the data most compounds retested in dose-response had high values
# condition.summary: 5 µM
The campaign covered roughly 48,000 compounds. About 13,000 (27%) showed an effect of 50% or more. The list shows a part of the results.
For each entry below, report its Percent Effect value.
# number only, unit % dropped from output

For the compound shown here, "COc1ccccc1CN(Cc1nc(Cc2ccccc2)no1)C1CC1" , give the reported Percent Effect.
122.2

For the compound shown here, COc1cccc(C(=O)N2CCCC(c3cc(C)[nH]n3)C2)c1OC (centres undefined) , give the reported Percent Effect.
3.009

For the compound shown here, "COc1ccccc1CN(Cc1nc2c(cnn2C)c(=O)[nH]1)C1CC1" , give the reported Percent Effect.
17.98

For the compound shown here, Cn1cnnc1C1CCCN(C(=O)c2ccc3c(c2)OCCCO3)C1 (centres undefined) , give the reported Percent Effect.
0.4143

For the compound shown here, COc1ccccc1-c1ccc(C2CCCN(C(C)=O)C2)nc1 (centres undefined) , give the reported Percent Effect.
120.7

For the compound shown here, CCCC(=O)N1CCC(c2nc(O)c3c(n2)CCN(C2CCCC2)C3)C1 (centres undefined) , give the reported Percent Effect.
91.38

For the compound shown here, "Cc1cnc(N2CCCn3c(nnc3Cn3cccn3)C2)nc1" , give the reported Percent Effect.
-6.744

For the compound shown here, Cc1nc2c(c(=O)n1C)CN(C(=O)C1CCCN(C3CCCC3)C1)C2 (centres undefined) , give the reported Percent Effect.
-4.359

For the compound shown here, "Cc1nnc(CN(Cc2ccccc2C(F)(F)F)C2CC2)o1" , give the reported Percent Effect.
-10.33

For the compound shown here, CCC(=O)N1CCC(NC2CCCC2)C1 (centres undefined) , give the reported Percent Effect.
-2.557

For the compound shown here, Cc1ccc(-c2ncc(C(=O)N3CCN4CCCCC4C3)c(O)n2)cc1 (centres undefined) , give the reported Percent Effect.
8.265

For the compound shown here, "O=C(N1CCCC1)N1CCn2c(Cn3cccn3)cnc2C1" , give the reported Percent Effect.
0.9982

For the compound shown here, CCC(=O)N1CCC(c2nc(O)c3c(n2)CN(C2CCCCC2)CC3)C1 (centres undefined) , give the reported Percent Effect.
94.52

For the compound shown here, "COc1ccccc1-c1nccnc1C1CCN(C(C)=O)CC1" , give the reported Percent Effect.
137.3

For the compound shown here, "COc1ccccc1-c1nnc([C@H]2CCN(C(C)=O)C2)o1" , give the reported Percent Effect.
4.286

For the compound shown here, O=C(C1CCCO1)N1CCCn2c(nnc2Cn2cccn2)C1 (centres undefined) , give the reported Percent Effect.
-13.04

For the compound shown here, CN1CCCC1c1nccnc1-c1ccc(C(=O)O)cc1 (centres undefined) , give the reported Percent Effect.
141.8

For the compound shown here, COc1ccc(CN2CC(O)CN(C(=O)OCC(C)(C)C)CC2=O)cc1 (centres undefined) , give the reported Percent Effect.
112.6

For the compound shown here, "CS(=O)(=O)CCC(=O)N1CCC(c2ccc(F)c(F)c2)CC1" , give the reported Percent Effect.
-5.239

For the compound shown here, "Cc1ccc(CCN2C(=O)CC[C@H]3CN(Cc4cnn(C)c4)CC[C@H]32)o1" , give the reported Percent Effect.
42.08

For the compound shown here, CC(C(=O)NC1CC1)S(=O)(=O)Cc1nc(Cc2ccccc2)no1 (centres undefined) , give the reported Percent Effect.
-3.587

For the compound shown here, Cc1occc1C(=O)N1CCCC(c2nncn2C)C1 (centres undefined) , give the reported Percent Effect.
118

For the compound shown here, "CN(C)Cc1nnc2n1CCCN(C(=O)c1c[nH]cn1)C2" , give the reported Percent Effect.
-1.146

For the compound shown here, "CCc1nc(CN2CCN(C(=O)COCc3ccccc3)CC2)no1" , give the reported Percent Effect.
16.69

All values here come from ChEMBL document CHEMBL3988442.
